From: ChEMBL document CHEMBL1147946

molecular target: Sodium-dependent dopamine transporter (Rattus norvegicus); assay: Inhibition of [3H]dopamine uptake at DAT in Sprague-Dawley rat striatum synaptosome
Sequence (P23977 whole entry): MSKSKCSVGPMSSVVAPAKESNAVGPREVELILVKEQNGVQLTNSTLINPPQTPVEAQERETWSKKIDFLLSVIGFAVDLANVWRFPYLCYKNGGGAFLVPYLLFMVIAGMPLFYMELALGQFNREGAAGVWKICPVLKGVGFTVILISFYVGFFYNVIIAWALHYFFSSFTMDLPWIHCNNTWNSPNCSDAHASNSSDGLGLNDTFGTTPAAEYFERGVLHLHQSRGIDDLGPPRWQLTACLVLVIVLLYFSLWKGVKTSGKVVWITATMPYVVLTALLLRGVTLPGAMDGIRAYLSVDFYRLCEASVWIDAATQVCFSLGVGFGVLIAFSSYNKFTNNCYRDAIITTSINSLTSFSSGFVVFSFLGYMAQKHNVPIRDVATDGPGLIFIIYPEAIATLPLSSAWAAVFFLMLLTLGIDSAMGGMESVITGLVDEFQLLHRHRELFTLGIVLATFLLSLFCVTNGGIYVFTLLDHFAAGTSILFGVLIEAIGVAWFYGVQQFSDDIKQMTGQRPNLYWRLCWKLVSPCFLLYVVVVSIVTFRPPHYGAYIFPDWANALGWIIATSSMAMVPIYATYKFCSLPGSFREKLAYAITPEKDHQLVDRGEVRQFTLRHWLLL
pKi: −log10 of the molar value.
Label No if pKi falls below 8; label Yes in every other case.

Item `Fc1ccc(C(OCCN2CC3CC(C2)N3Cc2cc3ccccc3s2)c2ccc(F)cc2)cc1` with pKi of 8 or above?
No

Item `Fc1ccc(C(OCCN2CC3CC(C2)N3Cc2cc3ccccc3o2)c2ccc(F)cc2)cc1` with pKi of 8 or above?
No

Item `Fc1ccc(C(OCCN2CC3CC(C2)N3C/C=C/c2ccc3ccccc3c2)c2ccc(F)cc2)cc1` with pKi of 8 or above?
No

Item `Fc1ccc(C(OCCN2CC3CC(C2)N3Cc2cc3ccccc3[nH]2)c2ccc(F)cc2)cc1` with pKi of 8 or above?
Yes
